# System name: EIF2AK3 (PERK) catalytic domain (amino acids 536-1116) (Homo sapiens (Human))
# Sequence (Q9NZJ5 536-1116): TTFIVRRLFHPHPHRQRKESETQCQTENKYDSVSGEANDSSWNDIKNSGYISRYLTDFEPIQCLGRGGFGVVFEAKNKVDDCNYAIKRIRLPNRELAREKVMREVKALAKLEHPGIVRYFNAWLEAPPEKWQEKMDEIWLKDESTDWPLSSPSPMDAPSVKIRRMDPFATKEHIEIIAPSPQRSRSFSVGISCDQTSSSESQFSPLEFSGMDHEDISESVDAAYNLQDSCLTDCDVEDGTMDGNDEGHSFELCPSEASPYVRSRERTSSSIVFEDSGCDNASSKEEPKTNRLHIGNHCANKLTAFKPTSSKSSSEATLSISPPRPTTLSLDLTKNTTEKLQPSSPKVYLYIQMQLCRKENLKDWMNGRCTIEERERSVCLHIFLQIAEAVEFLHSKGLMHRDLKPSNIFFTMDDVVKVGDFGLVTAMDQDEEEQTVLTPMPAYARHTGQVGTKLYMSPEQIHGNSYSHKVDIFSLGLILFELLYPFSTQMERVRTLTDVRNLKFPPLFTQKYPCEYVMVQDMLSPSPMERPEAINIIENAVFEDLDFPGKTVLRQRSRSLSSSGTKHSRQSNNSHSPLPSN
# Protocol: PERK in vitro activity assay (isolated), TR-FRET kinase assay
# Condition info: isolated PERK enzyme, 1.5 μM ATP, GFP-eIF2a substrate; read-out: Biochemical IC50
Provide the reported IC50 of each item.

A selection of reference data follows.
[[record]]
compound = "Cc1cc(NC(=O)C(O)c2cc(F)cc(F)c2)ccc1-c1cnc(C)c(C(=O)NC(C)C)c1 (centres unmarked) [Example 176]"
recorded_result = "51 to 100 nM"

[[record]]
compound = "Cc1cc(NC(=O)C(O)c2cc(F)cc(F)c2)ccc1-c1cnc(C)c(C(=O)NC(C)C)c1 (centres unmarked) [Example 177]"
recorded_result = "26 to 50 nM"

[[record]]
compound = "Cc1nc(C(O)C(=O)Nc2ccc(-c3cnc(N)c(C(=O)NC(C)C)c3)c(C)c2)cs1 (centres unmarked) [Example 78]"
recorded_result = "1000 to 2000 nM"

[[record]]
compound = "Cc1cc(NC(=O)C(O)c2cc(F)cc(F)c2)ccc1-c1cnc(N)c(C(=O)NC2CC2)n1 (centres unmarked) [Example 138]"
recorded_result = "1 to 25 nM"


Attention now shifts to the item below.
Q) Recorded IC50 of Cc1cc(NC(=O)c2ccccc2)ccc1-c1cnc(N)c(C(=O)NC(C)C)c1 [Example 217] , please.
A) > 5000 nM
